These measurements were taken from ChEMBL document CHEMBL4819004.

target: Protein cereblon/Cyclin-dependent kinase 9 (Homo sapiens, UniProt P50750+Q96SW2); test: Protac activity at CRBN/CDK9 in human MOLM-13 cells assessed as CDK9 degradation rate at 500 nM incubated for 6 hrs by Western blot assay relative to control; assay type: cell-based
Sequence (P50750 whole entry, looked up): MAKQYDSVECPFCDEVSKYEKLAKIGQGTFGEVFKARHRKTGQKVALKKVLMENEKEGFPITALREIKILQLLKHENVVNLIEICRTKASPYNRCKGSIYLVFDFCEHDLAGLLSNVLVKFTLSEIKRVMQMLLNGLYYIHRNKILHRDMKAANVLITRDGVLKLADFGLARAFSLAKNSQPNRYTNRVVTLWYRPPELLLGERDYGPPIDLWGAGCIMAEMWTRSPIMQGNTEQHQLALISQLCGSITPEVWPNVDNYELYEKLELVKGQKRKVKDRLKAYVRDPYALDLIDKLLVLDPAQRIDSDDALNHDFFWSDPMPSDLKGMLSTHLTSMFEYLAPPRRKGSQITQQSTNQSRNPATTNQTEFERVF
Sequence (Q96SW2 whole entry, looked up): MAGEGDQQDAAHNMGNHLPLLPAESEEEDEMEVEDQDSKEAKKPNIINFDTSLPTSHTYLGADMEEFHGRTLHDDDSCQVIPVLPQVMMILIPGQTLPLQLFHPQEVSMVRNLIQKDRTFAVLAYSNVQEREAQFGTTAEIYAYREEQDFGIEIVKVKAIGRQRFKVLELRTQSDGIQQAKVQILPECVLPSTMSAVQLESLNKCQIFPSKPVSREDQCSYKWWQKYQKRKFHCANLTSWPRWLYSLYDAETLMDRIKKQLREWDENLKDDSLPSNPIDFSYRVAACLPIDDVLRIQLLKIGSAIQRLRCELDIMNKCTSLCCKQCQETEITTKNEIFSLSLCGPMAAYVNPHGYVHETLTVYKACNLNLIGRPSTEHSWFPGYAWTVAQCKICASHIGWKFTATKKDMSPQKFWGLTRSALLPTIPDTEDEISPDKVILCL
quantity name: Activity (%)

- compound: "COc1cc(F)ccc1-c1ncnc(Nc2cccc(CS(C)(=O)=NC(=O)CCc3cn(CCCCCC(=O)NCCNc4cccc5c4C(=O)N(C4CCC(=O)NC4=O)C5=O)nn3)c2)n1 (stereo unspecified)"
  assayed target: "Protein cereblon/Cyclin-dependent kinase 9 (Homo sapiens, UniProt P50750+Q96SW2)"
  uom: "%"
  reported measurement: 66
- compound: "COc1cc(F)ccc1-c1ncnc(Nc2cccc(CS(C)(=O)=NC(=O)COCCOCCOCC(=O)NCCCCCNc3cccc4c3C(=O)N(C3CCC(=O)NC3=O)C4=O)c2)n1 (stereo unspecified)"
  assayed target: "Protein cereblon/Cyclin-dependent kinase 9 (Homo sapiens, UniProt P50750+Q96SW2)"
  uom: "%"
  reported measurement: 99
- compound: "COc1cc(F)ccc1-c1ncnc(Nc2cccc(CS(C)(=O)=NC(=O)CCCCCC(=O)NCCNc3cccc4c3C(=O)N(C3CCC(=O)NC3=O)C4=O)c2)n1 (stereo unspecified)"
  assayed target: "Protein cereblon/Cyclin-dependent kinase 9 (Homo sapiens, UniProt P50750+Q96SW2)"
  uom: "%"
  reported measurement: 66
- compound: "COc1cc(N2CCN(CCCCCC(=O)NCCNc3cccc4c3C(=O)N(C3CCC(=O)NC3=O)C4=O)CC2)ccc1-c1ncnc(Nc2cccc(CS(C)(=N)=O)c2)n1 (stereo unspecified)"
  assayed target: "Protein cereblon/Cyclin-dependent kinase 9 (Homo sapiens, UniProt P50750+Q96SW2)"
  uom: "%"
  reported measurement: 24
- compound: "COc1cc(F)ccc1-c1ncnc(Nc2cccc(CS(C)(=O)=NC(=O)CCCC(=O)NCCNc3cccc4c3C(=O)N(C3CCC(=O)NC3=O)C4=O)c2)n1 (stereo unspecified)"
  assayed target: "Protein cereblon/Cyclin-dependent kinase 9 (Homo sapiens, UniProt P50750+Q96SW2)"
  uom: "%"
  reported measurement: 99
- compound: "COc1cc(F)ccc1-c1ncnc(Nc2cccc(CS(C)(=O)=NC(=O)CCCCCCCCCC(=O)NCCNc3cccc4c3C(=O)N(C3CCC(=O)NC3=O)C4=O)c2)n1 (stereo unspecified)"
  assayed target: "Protein cereblon/Cyclin-dependent kinase 9 (Homo sapiens, UniProt P50750+Q96SW2)"
  uom: "%"
  reported measurement: 99
